Target: T1, human RANKL protein (human, UniProt O14788 140-317, limits assumed)
T1 sequence (looked up): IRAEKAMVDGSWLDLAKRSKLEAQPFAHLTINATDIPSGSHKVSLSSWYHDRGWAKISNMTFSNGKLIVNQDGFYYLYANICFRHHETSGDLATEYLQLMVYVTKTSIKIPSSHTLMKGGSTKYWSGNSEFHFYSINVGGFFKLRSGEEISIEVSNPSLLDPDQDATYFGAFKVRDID
Assay: cell-based or functional assay
MEASUREMENT KIND: IC50 in a RAW cell assay (TRAP activity, OD 405 nM) (ng/mL)
Numbers only, in ng/mL.

Here are 2 binders together with their reported answers.
[
  {
    "BINDER": "clone 408 rabbit anti-RANKL antibody (antibody, V domains shown) VH: QSVEESGGRLVTPGTPLTLTCTVSGFSLSTDVVSWVRQAPGKGLEWIGYTWNGGATFYASWAKGRFTFSKTSTTVDLKITSPTTEDTATYFCARGYNGMDPWGPGTLVTVSS VL: DMTQTPASVEAAVGGAVTIKCQASQNIGSNLAWYHQKPGQPPKLLISKASTLASGVPSRFKGSGSGTEFTLAISDLECADAATYYCQQGYTTKNVVNPFGGGTEVVVK",
    "RECORDED MEASUREMENT": 6.44
  },
  {
    "BINDER": "clone EBI-51-22 rabbit anti-RANKL antibody (antibody, V domains shown) VH: QSVEESGGRLVTPGTLLTLTCTVSGFSLSTDVLSWVRQAPGKGLEWIGYTWSGGSTYYASWAKGRFTISKTSSTTVDLKITSPTTEDTATYFCARGFNPFDPWGPGTLVTVSS VL: DMTQTPASVSDPVGGTVTIKCQASQNIGSNLAWYQQKPGQRPKLLIYRASTLASGVSSRFKGSGSGTQFTLTISDLECADAATYYCQQGYSAGNVDNNAFGGGTEVVVK",
    "RECORDED MEASUREMENT": 3.6
  }
]

Moving on to another binder below.
# input What IC50 in a RAW cell assay (TRAP activity, OD 405 nM) value was documented for this binder, clone 23 rabbit anti-RANKL antibody (antibody, V domains shown, also called RabMAb 23; parent 23 rabbit antibody) VH: QEQLKESGGGLVTPGGTLTLTCTASGFSLSSDGMSWVRQAPGKGLEWIGYIYSGSSPYYANWAKGRFTISKTSSTTVDLKMTSLTTEDTATYFCARHGSGGGWYLDIWGPGTLVTVSS VL: AYDMIQTPASVEVAVGGTVTINCQASQTIGTNLAWYQQKPGQRPKLLIYAASTLPSGVSSRFKGSGSGTQFTLTISDVECSDAATYYCQQAYSVGNVDNAFGGGTEVVVK ?
# output 1.71

src = patent US20160032001A1
